Test name: NCI Yeast Anticancer Drug Screen. Data for the bub3 strain (AID 167)
Condition info: S. cerevisiae bub3 mutant strain, at 50.0 µM, active compounds read high
Compounds without any hit were thinned out: in the full panel of roughly 79,000, 15% have a hit.
# growth inhibition per entry
Numeric only. Scale: %

compound="O=C(NC[N+]12CCO[B-]1(c1ccc(Cl)cc1)OCC2)c1ccccc1O (centres undefined)" metric_name="growth inhibition" value_observed=24

// growth inhibition lookup, key: O=C(O)/C(=C/c1ccccc1)c1ccccc1
-33.5

Would you mind telling me what growth inhibition value was observed for NCC1OCOC2C(C(=O)O)OCOC12 (centres undefined) ?
3.8

Entry CC1C(c2ccccc2)OC(c2ccccc2)N1C (centres undefined) has what growth inhibition?
9.7

---

Test name: NCI Yeast Anticancer Drug Screen. Data for the cln2 rad14 strain (AID 165);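 note: 0% = growth equal to vehicle treated cultures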
Condition info: S. cerevisiae cln2 rad14 strain, at 50.0 µM
This is part of a sample that, as a whole, favours compounds with a hit. Of some 79,000 tested, about 15% had one in any assay. Activity calls are given as the source filed them. No stated cut-off is given here; in the data, active means growth inhibition above about 70%; inactive means the rest.
// allowed return values: active, inactive

compound=Cc1ccc(-n2[nH]nc(C#N)c2=O)cc1 class=inactive
compound="O=C1OC(c2ccccc2)(C2(c3ccccc3)C=C(c3ccccc3)C(=O)O2)C=C1c1ccccc1 (stereo not given)" class=inactive
compound=CCCCCCCCCCCCCCCCCC(=O)CC(=O)OCC class=inactive
compound="CC(=O)NC(CCCCN)C(=O)NCc1ccccc1 (stereo not given)" class=inactive
compound=CCCc1ccc(N=Nc2ccc(C(=O)O)cc2)cc1 class=inactive
compound=C[CH2][Ge]([CH2]C)([CH2]C)[O]C(=O)CCC(=O)[O][Ge]([CH2]C)([CH2]C)[CH2]C class=inactive

// switching to the query compound
For O=C(O)[C@@H]1[C@H](C(=O)O)[C@H](C(=O)O)C[C@@H]1C(=O)O , what call appears in the results of this test?
inactive

---

// reported growth inhibition per item
Test name: NCI Yeast Anticancer Drug Screen. Data for the bub3 strain (AID 167)
Condition info: S. cerevisiae bub3 mutant strain, at 50.0 µM, active compounds read high
About 79,000 compounds went through this panel and 15% of them were active in at least one assay; those are over-represented in the sample as a whole.
Unit % implied. Number only.

Before answering, review these 2 worked examples.
compound="COC1(OC)C2(Cl)CCC1(Cl)C(OC(C)=O)C2 (stereo not given)" metric_name="growth inhibition" value_observed=-8
compound="CCC(CCN(C)C)(OC(C)=O)c1ccccc1 (stereo not given)" metric_name="growth inhibition" value_observed=30.9

Entry Cc1ncc([N+](=O)[O-])n1Cc1nncs1 : reported growth inhibition = ?
-19.3

Item COc1ccc(-c2oc3ccccc3c(=O)c2O)cc1OC has what recorded growth inhibition?
21.4

Look up growth inhibition: O=C(NCSC1=NCCS1)NCSC1=NCCS1
2.85

Quick check: growth inhibition of Cc1cc(O)c(/C=N/c2nc(-c3ccc([N+](=O)[O-])cc3)cs2)c(=O)o1 ?
-7.7

Which growth inhibition value is on record for COc1ccc(C2(C)C=C(C)C=C(C)C2=O)cc1 (stereo not given) ?
-9.65

---

Test name: NCI Yeast Anticancer Drug Screen. Data for the rad50 strain (AID 155);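 note: 0% = growth of vehicle-only cultures of the same strain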
Condition info: S. cerevisiae rad50 strain growth inhibition; at 50.0 µM
Compounds without any hit were thinned out: in the full panel of roughly 79,000, 15% have a hit. Calls of active or inactive are those of the source. Cut-off read from the data, not from the text of the source: active = growth inhibition above about 70%; inactive = the rest.
Answer with one of the outcomes given here: y = active, n = inactive

molecule="CCCCC(CC)COC(=O)CCl (stereo not given)" class=n
molecule=CCCCOc1n[nH]c(=O)c2ccccc12 class=n
molecule=O=c1ccc2cc3ccoc3c(OCCOCCOCCOCCOc3c4occc4cc4ccc(=O)oc34)c2o1 class=n
molecule=CCCCOC(=O)N1CCCCC1 class=n
molecule=CC(C)(C)c1cc(-c2cc(C(C)(C)C)n(-c3ccccc3)n2)nn1-c1ccccc1 class=n
molecule=CCC(C)(C)N class=n

Per the records of this test, what outcome belongs to CC(C)(C)C(N)=O ?
n
